Hello, the source for this data is paper PMC11276849, in case you need it.

- TEST_SYSTEM: PxutCSP19-T2 (Papilio xuthus, UniProt A0A194QJK0)
- Sequence (A0A194QJK0 53-142): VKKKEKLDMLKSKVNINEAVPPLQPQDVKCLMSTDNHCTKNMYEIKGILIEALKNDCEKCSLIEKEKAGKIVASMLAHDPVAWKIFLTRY
- PROCEDURE_TEXT: Fluorescence competitive binding assay (1-NPN displacement), truncated PxutCSP19-T2
RECORDED_ENDPOINT: pIC50
Remember the convention: pIC50 equals -log10 of concentration in molar.

Return reported pIC50; argument: CCOP(=S)(OCC)O/N=C(\C#N)c1ccccc1
5.50

Return reported pIC50; argument: C=C(C)[C@H]1Cc2c(ccc3c2O[C@@H]2COc4cc(OC)c(OC)cc4[C@@H]2C3=O)O1
4.95

Return reported pIC50; argument: CCOP(=S)(OCC)Oc1nc(Cl)c(Cl)cc1Cl
5.27

====

- TEST_SYSTEM: UniProtKB A0A194QJK0
- PROCEDURE_TEXT: Fluorescence competitive binding assay (1-NPN displacement), truncated PxutCSP19-T2
- EXPERIMENTAL_CONDITIONS: T2; read-out: IC50
- Procedure: In order to investigate the ligand-binding properties of PxutCSP19 to host odorants and insecticides, we first asked whether this fluorescent probe 1-NPN was available for the binding of PxutCSP19. […] The binding constant (K1-NPN) of 1-NPN to this protein was determined with GraphPad Prism 7 (GraphPad Software Inc., San Diego, CA), as previously described. […]
Lab note: cut-off is 30 µM. Strictly less in IC50 is TRUE. Exactly 30 µM or more is FALSE.

hey, is IC50 for CCOCn1c(-c2ccc(Cl)cc2)c(C#N)c(Br)c1C(F)(F)F lower than 30 µM or not?
TRUE

hey, is IC50 for O=C(NC(=O)c1c(F)cccc1F)Nc1cc(Cl)c(OC(F)(F)C(F)F)c(Cl)c1 lower than 30 µM or not?
TRUE

hey, is IC50 for CCCCCCCCO lower than 30 µM or not?
FALSE

hey, is IC50 for COc1cc(C=O)cc(OC)c1O lower than 30 µM or not?
TRUE

hey, is IC50 for CN(C)C(CSS(=O)(=O)O)CSS(=O)(=O)O lower than 30 µM or not?
TRUE

hey, is IC50 for COC(=O)N(C(=O)N1CO[C@@]2(C(=O)OC)Cc3cc(Cl)ccc3C2=N1)c1ccc(OC(F)(F)F)cc1 lower than 30 µM or not?
TRUE

hey, is IC50 for O=C(NC(=O)c1c(F)cccc1F)Nc1cc(Cl)c(Oc2ncc(C(F)(F)F)cc2Cl)c(Cl)c1 lower than 30 µM or not?
TRUE

hey, is IC50 for CC(C)=CCC/C(C)=C\CO lower than 30 µM or not?
FALSE

hey, is IC50 for C=C/C(C)=C/CC=C(C)C lower than 30 µM or not?
FALSE

hey, is IC50 for C=CC(C)(O)CCC=C(C)C (centres unmarked) lower than 30 µM or not?
FALSE

hey, is IC50 for CC1=CCC(=C(C)C)CC1 lower than 30 µM or not?
FALSE

====

RECORDED_ENDPOINT: Kd (nM)
Provide the reading as a plain figure in nM.

Please provide the recorded Kd for c1ccc(Nc2cccc3ccccc23)cc1 [1-NPN, N-phenyl-1-naphthylamine] , tested on PxutCSP19-T1 (Papilio xuthus, UniProt A0A194QJK0).
Sequence (A0A194QJK0 35-142): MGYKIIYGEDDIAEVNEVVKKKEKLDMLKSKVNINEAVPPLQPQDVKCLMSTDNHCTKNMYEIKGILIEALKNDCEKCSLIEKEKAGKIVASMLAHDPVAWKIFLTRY
2120

====

Provide the reported pIC50 of each item.
- TEST_SYSTEM: PxutCSP19 (Papilio xuthus, UniProt A0A194QJK0)
- Sequence (A0A194QJK0 entry or part of it): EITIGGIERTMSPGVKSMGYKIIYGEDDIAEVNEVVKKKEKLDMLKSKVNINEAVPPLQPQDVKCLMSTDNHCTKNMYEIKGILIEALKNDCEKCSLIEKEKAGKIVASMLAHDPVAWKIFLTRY
- PROCEDURE_TEXT: Fluorescence competitive binding assay (1-NPN displacement), wildtype PxutCSP19
pIC50: −log10 of the molar value.

Return reported pIC50; argument: C=CC(C)(O)CCC=C(C)CCC=C(C)C (mixture of isomers) [Nerolidol]
< 4.70

Return reported pIC50; argument: CC/C=C\CCO [(Z)-3-Hexen-1-ol]
< 4.70

Return reported pIC50; argument: CC1=CCC2CC1C2(C)C (stereo not drawn) [α-Pinene]
< 4.70

Return reported pIC50; argument: O=C(NC(=O)c1c(F)cccc1F)Nc1cc(Cl)c(OC(F)(F)C(F)F)c(Cl)c1 [Hexaflumuron]
4.92

Return reported pIC50; argument: O=C(NC(=O)c1c(F)cccc1F)Nc1ccc(Cl)cc1 [Diflubenzuron, reference compound]
< 4.70

Return reported pIC50; argument: CCC/C=C/C=O [(E)-2-Hexenal]
< 4.70

Return reported pIC50; argument: c1ccc2[nH]ccc2c1 [Indole]
< 4.70

Return reported pIC50; argument: CC1=CCC(=C(C)C)CC1 [Terpinolene]
4.47

Return reported pIC50; argument: COc1cc(C=O)cc(OC)c1O [Syringaldehyde]
4.51

Return reported pIC50; argument: CC(C)=CCC/C(C)=C\CO [Nerol]
4.47

Return reported pIC50; argument: CC1(C)C(C=C(Cl)Cl)C1C(=O)OC(C#N)c1cccc(Oc2ccccc2)c1 (stereo not drawn) [α-Cypermethrin, reference compound]
< 4.70

====

- TEST_SYSTEM: UniProt:A0A194QJK0
- PROCEDURE_TEXT: Fluorescence competitive binding assay (1-NPN displacement), truncated PxutCSP19-T2
- EXPERIMENTAL_CONDITIONS: T2 (35 N-terminal residues truncated); ligand at 20 μM; read-out: F.D. (fluorescent displacement rate of ligands)
RECORDED_ENDPOINT: inhibition at 20 µM (%)
Provide the reading as a plain figure in %.

Return reported inhibition at 20 µM; argument: CCOP(=S)(OCC)Oc1nc(Cl)c(Cl)cc1Cl
73.2

Return reported inhibition at 20 µM; argument: COC(=O)N(C(=O)N1CO[C@@]2(C(=O)OC)Cc3cc(Cl)ccc3C2=N1)c1ccc(OC(F)(F)F)cc1
62.5

Return reported inhibition at 20 µM; argument: O=C(NC(=O)c1c(F)cccc1F)Nc1cc(Cl)c(OC(F)(F)C(F)F)c(Cl)c1
59.6

Return reported inhibition at 20 µM; argument: C=CC(C)(O)CCC=C(C)C (centres unmarked)
40.3

Return reported inhibition at 20 µM; argument: CCOCn1c(-c2ccc(Cl)cc2)c(C#N)c(Br)c1C(F)(F)F
64.3

Return reported inhibition at 20 µM; argument: COc1cc(C=O)cc(OC)c1O
42.2

Return reported inhibition at 20 µM; argument: C=C(C)[C@H]1Cc2c(ccc3c2O[C@@H]2COc4cc(OC)c(OC)cc4[C@@H]2C3=O)O1
64.4

Return reported inhibition at 20 µM; argument: C=C/C(C)=C/CC=C(C)C
35.2

Return reported inhibition at 20 µM; argument: O=C(NC(=O)c1c(F)cccc1F)Nc1cc(Cl)c(Oc2ncc(C(F)(F)F)cc2Cl)c(Cl)c1
57

Return reported inhibition at 20 µM; argument: CN(C)C(CSS(=O)(=O)O)CSS(=O)(=O)O
61

Return reported inhibition at 20 µM; argument: CCOP(=S)(OCC)O/N=C(\C#N)c1ccccc1
84.8

Return reported inhibition at 20 µM; argument: CCCCCCCCO
42.7

Return reported inhibition at 20 µM; argument: CC(C)=CCC/C(C)=C\CO
40.8

Return reported inhibition at 20 µM; argument: CC1=CCC(=C(C)C)CC1
38.5

====

- TEST_SYSTEM: PxutCSP19-T2 (Papilio xuthus)
- PROCEDURE_TEXT: Fluorescence competitive binding assay (1-NPN displacement), truncated PxutCSP19-T2
- EXPERIMENTAL_CONDITIONS: T2; Ki = [IC50]/(1 + [1-NPN]/K1-NPN)
RECORDED_ENDPOINT: Ki (µM)
Provide the reading as a plain figure in µM.

Return reported Ki; argument: C=CC(C)(O)CCC=C(C)C (centres unmarked)
22.8

Return reported Ki; argument: CC(C)=CCC/C(C)=C\CO
22.2

Return reported Ki; argument: COC(=O)N(C(=O)N1CO[C@@]2(C(=O)OC)Cc3cc(Cl)ccc3C2=N1)c1ccc(OC(F)(F)F)cc1
7.98

Return reported Ki; argument: O=C(NC(=O)c1c(F)cccc1F)Nc1cc(Cl)c(Oc2ncc(C(F)(F)F)cc2Cl)c(Cl)c1
8.88

Return reported Ki; argument: COc1cc(C=O)cc(OC)c1O
18.8

Return reported Ki; argument: C=C/C(C)=C/CC=C(C)C
21.6

Return reported Ki; argument: CC1=CCC(=C(C)C)CC1
20.8

Return reported Ki; argument: CCCCCCCCO
22.8

Return reported Ki; argument: CN(C)C(CSS(=O)(=O)O)CSS(=O)(=O)O
11.8

Return reported Ki; argument: O=C(NC(=O)c1c(F)cccc1F)Nc1cc(Cl)c(OC(F)(F)C(F)F)c(Cl)c1
8.02

Return reported Ki; argument: CCOCn1c(-c2ccc(Cl)cc2)c(C#N)c(Br)c1C(F)(F)F
6.68

====

- TEST_SYSTEM: PxutCSP19 (Papilio xuthus, UniProt A0A194QJK0)
- PROCEDURE_TEXT: Fluorescence competitive binding assay (1-NPN displacement), wildtype PxutCSP19
- EXPERIMENTAL_CONDITIONS: read-out: F.D. (fluorescent displacement rate of ligands), Wildtype (WT); ligand at 20 μM; PxutCSP19/1-NPN each 2 μM; NB = no binding
RECORDED_ENDPOINT: inhibition at 20 µM (%)
Provide the reading as a plain figure in %.

Return reported inhibition at 20 µM; argument: C/C=C(\C)C(=O)O[C@H]1C[C@@H](OC(C)=O)[C@@]2(C(=O)OC)CO[C@H]3[C@@H](O)[C@@](C)([C@]45O[C@@]4(C)[C@H]4C[C@@H]5O[C@@H]5OC=C[C@@]54O)[C@H]4[C@]1(CO[C@]4(O)C(=O)OC)[C@@H]32 [Azadirachtin, reference compound]
34.5

Return reported inhibition at 20 µM; argument: C=C1CCC2CC1C2(C)C (stereo not drawn) [β-Pinene]
31.2

Return reported inhibition at 20 µM; argument: C=CC(=C)CCC=C(C)C [Myrcene]
32.4

Return reported inhibition at 20 µM; argument: O=C(NC(=O)c1c(F)cccc1F)Nc1ccc(Cl)cc1 [Diflubenzuron, reference compound]
27

Return reported inhibition at 20 µM; argument: CC(C)=CCC/C(C)=C/C=O [Citral]
39.7

Return reported inhibition at 20 µM; argument: CCOC(C)=O [Ethyl acetate]
37.6

Return reported inhibition at 20 µM; argument: CNC(=O)ON=C(C)SC [Methomyl, reference compound]
45.4
